- assay_system: Voltage-gated inwardly rectifying potassium channel KCNH2 (Homo sapiens)
- assay: hERG protection against dofetilide inhibition, confirmation, cell-based, thallium flux, duplicate retest, dofetilide IC70 (AID 1835)
- experimental_context: hERG cell line, FluxOR thallium flux, dofetilide-blocked; at 10 µM
The whole screen tested about 2,400 compounds, of which about 750 (31%) were called active.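 The calls were made as follows: active = median signal gain over dofetilide-blocked control wells reaching their mean plus 3 SD, so readout 1 at least 0; inactive = the rest.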 Some of the results follow.
Reply using exactly one outcome from Y for active, N for inactive

Write down the call the test reported for this compound. Item: CCOC(=O)C1=NN(C(=O)c2ccc(C)cc2)C(O)(c2ccc(Cl)cc2)C1 (stereo unspecified) Y

Write down the call the test reported for this compound. Item: O=C(CCC1CCCC1)NNC(=O)c1cccc(Cl)c1 N

Write down the call the test reported for this compound. Item: S=C(Nc1ccccc1)Nc1nc2ccccc2n1CCOc1ccccc1 N

Write down the call the test reported for this compound. Item: N#Cc1ccccc1OCCN1C(=O)c2ccccc2C1=O N

Write down the call the test reported for this compound. Item: Cc1nnc(C)n1/N=C/c1cc(Br)cc(Br)c1O Y

Write down the call the test reported for this compound. Item: CCOC(=O)C1=NN(C(=O)c2ccccc2)C(O)(c2ccc(C)cc2)C1 (stereo unspecified) Y

Write down the call the test reported for this compound. Item: O=C(C1CC(=O)N(c2ccc3c(c2)OCCO3)C1)N1CCCC(C(F)(F)F)C1 (stereo unspecified) N

Write down the call the test reported for this compound. Item: Brc1ccc(Nc2nc(-c3cccnc3)cs2)cc1 N

Write down the call the test reported for this compound. Item: CCCN1CCC(NC(=O)CC2C(=O)NCCN2Cc2cccc(OC)c2)CC1 (stereo unspecified) N

Write down the call the test reported for this compound. Item: COc1ccc(C(=O)NC(=S)N2CCC(C)CC2)cc1 N

Write down the call the test reported for this compound. Item: CCC1=NN(C(=O)c2ccc(Cl)cc2)C(O)(c2ccc(C)cc2)C1 (stereo unspecified) N

---

- assay_system: Voltage-gated inwardly rectifying potassium channel KCNH2 (Homo sapiens)
- assay: hERG protection against dofetilide inhibition, confirmation, cell-based, thallium flux, duplicate retest, dofetilide IC70 (AID 1835)
- experimental_context: hERG cell line, FluxOR thallium flux, dofetilide-blocked; at 10 µM; stronger effect = higher value
The whole screen tested about 2,400 compounds, of which about 750 (31%) were called active. This is one part of the list.
readout_label: activity increase over dofetilide control, less the hit threshold

State recorded activity increase over dofetilide control, less the hit threshold with Voltage-gated inwardly rectifying potassium channel KCNH2 (Homo sapiens), entry O=C(CN1C(=O)S/C(=C\c2cccs2)C1=O)Nc1ccc(O)c(C(=O)O)c1 , no comment. -3% (inactive)

State recorded activity increase over dofetilide control, less the hit threshold with Voltage-gated inwardly rectifying potassium channel KCNH2 (Homo sapiens), entry O=C(Nc1c[nH]c(=O)[nH]c1=O)c1ccc2c(c1)C(=O)N(c1cccc([N+](=O)[O-])c1)C2=O , no comment. -10% (inactive)

State recorded activity increase over dofetilide control, less the hit threshold with Voltage-gated inwardly rectifying potassium channel KCNH2 (Homo sapiens), entry Cc1cc(C)nc(SCc2nnc(SCC(=O)Nc3nc(-c4ccccc4)cs3)n2-c2ccccc2)n1 , no comment. -19% (inactive)

State recorded activity increase over dofetilide control, less the hit threshold with Voltage-gated inwardly rectifying potassium channel KCNH2 (Homo sapiens), entry CS(=O)(=O)N1CCC(C(=O)Nc2c(F)cccc2F)CC1 , no comment. -6% (inactive)

State recorded activity increase over dofetilide control, less the hit threshold with Voltage-gated inwardly rectifying potassium channel KCNH2 (Homo sapiens), entry Cc1cccc(NC(=O)COc2coc(CN3CCN(c4ccccc4)CC3)cc2=O)c1 , no comment. -18% (inactive)

State recorded activity increase over dofetilide control, less the hit threshold with Voltage-gated inwardly rectifying potassium channel KCNH2 (Homo sapiens), entry CCc1ccc2c(c1)c(N=NC1=NC(=O)CS1)c(O)n2CC , no comment. 39% (active)

State recorded activity increase over dofetilide control, less the hit threshold with Voltage-gated inwardly rectifying potassium channel KCNH2 (Homo sapiens), entry CC(C)c1cccc(C(C)C)c1NC(=O)COC(=O)[C@H](C)NC(N)=O , no comment. -11% (inactive)

State recorded activity increase over dofetilide control, less the hit threshold with Voltage-gated inwardly rectifying potassium channel KCNH2 (Homo sapiens), entry O=C(Nc1nnc(-c2ccccc2)o1)c1ccc(Cl)cc1 , no comment. -19% (inactive)

State recorded activity increase over dofetilide control, less the hit threshold with Voltage-gated inwardly rectifying potassium channel KCNH2 (Homo sapiens), entry N#Cc1c(NC(=O)c2cc(-n3cnnc3)ccc2Cl)sc2c1CCCC2 , no comment. 5% (active)

State recorded activity increase over dofetilide control, less the hit threshold with Voltage-gated inwardly rectifying potassium channel KCNH2 (Homo sapiens), entry O=C(Nc1nc(-c2ccccc2)c(-c2ccccc2)o1)c1ccc(F)cc1 , no comment. 17% (active)

State recorded activity increase over dofetilide control, less the hit threshold with Voltage-gated inwardly rectifying potassium channel KCNH2 (Homo sapiens), entry Cc1nnc(SCc2cc(=O)oc3cc(O)ccc23)n1Cc1ccccc1 , no comment. 12% (active)

State recorded activity increase over dofetilide control, less the hit threshold with Voltage-gated inwardly rectifying potassium channel KCNH2 (Homo sapiens), entry O=C(CN1C(=O)S/C(=C\c2cc(Cl)c(O)c(Cl)c2)C1=O)Nc1ccccc1 , no comment. -21% (inactive)

State recorded activity increase over dofetilide control, less the hit threshold with Voltage-gated inwardly rectifying potassium channel KCNH2 (Homo sapiens), entry CCOC(=O)c1cnc(-n2nc(C)cc2C)nc1NNc1nc(-c2ccccc2)cc(-c2ccccc2)n1 , no comment. -12% (inactive)

State recorded activity increase over dofetilide control, less the hit threshold with Voltage-gated inwardly rectifying potassium channel KCNH2 (Homo sapiens), entry Cc1cc(F)ccc1NC(=O)C1CCN(C(=O)Nc2ccccc2)CC1 , no comment. -17% (inactive)

State recorded activity increase over dofetilide control, less the hit threshold with Voltage-gated inwardly rectifying potassium channel KCNH2 (Homo sapiens), entry Cc1nc2ccccc2n1-c1ccccc1 , no comment. 3% (active)

State recorded activity increase over dofetilide control, less the hit threshold with Voltage-gated inwardly rectifying potassium channel KCNH2 (Homo sapiens), entry CCn1c(O)c(N=NC2=NC(=O)CS2)c2cc(C)ccc21 , no comment. -10% (inactive)

State recorded activity increase over dofetilide control, less the hit threshold with Voltage-gated inwardly rectifying potassium channel KCNH2 (Homo sapiens), entry O=C(COc1nsnc1N1CCOCC1)Nc1ccc(Cl)cc1 , no comment. -21% (inactive)

State recorded activity increase over dofetilide control, less the hit threshold with Voltage-gated inwardly rectifying potassium channel KCNH2 (Homo sapiens), entry CCc1cc2cc(C)cc(C)c2[nH]c1=S , no comment. 14% (active)

State recorded activity increase over dofetilide control, less the hit threshold with Voltage-gated inwardly rectifying potassium channel KCNH2 (Homo sapiens), entry O=C(CN(C(=O)CNS(=O)(=O)c1ccc(F)cc1)c1cccc(F)c1)NCC1CCCO1 (configuration not stated) , no comment. -17% (inactive)

State recorded activity increase over dofetilide control, less the hit threshold with Voltage-gated inwardly rectifying potassium channel KCNH2 (Homo sapiens), entry NC(=O)CC1NC(=O)c2ccccc21 (configuration not stated) , no comment. -10% (inactive)

State recorded activity increase over dofetilide control, less the hit threshold with Voltage-gated inwardly rectifying potassium channel KCNH2 (Homo sapiens), entry CCOC(=O)N/N=C\c1ccc(-c2cc(Cl)ccc2Cl)o1 , no comment. -2% (inactive)

State recorded activity increase over dofetilide control, less the hit threshold with Voltage-gated inwardly rectifying potassium channel KCNH2 (Homo sapiens), entry O=C(CSCc1cnn(-c2ccccc2)c1-n1cccc1)NCc1cccnc1 , no comment. -22% (inactive)

---

- assay_system: Voltage-gated inwardly rectifying potassium channel KCNH2 (Homo sapiens) (UniProt Q12809)
- Sequence (Q12809 whole entry, looked up): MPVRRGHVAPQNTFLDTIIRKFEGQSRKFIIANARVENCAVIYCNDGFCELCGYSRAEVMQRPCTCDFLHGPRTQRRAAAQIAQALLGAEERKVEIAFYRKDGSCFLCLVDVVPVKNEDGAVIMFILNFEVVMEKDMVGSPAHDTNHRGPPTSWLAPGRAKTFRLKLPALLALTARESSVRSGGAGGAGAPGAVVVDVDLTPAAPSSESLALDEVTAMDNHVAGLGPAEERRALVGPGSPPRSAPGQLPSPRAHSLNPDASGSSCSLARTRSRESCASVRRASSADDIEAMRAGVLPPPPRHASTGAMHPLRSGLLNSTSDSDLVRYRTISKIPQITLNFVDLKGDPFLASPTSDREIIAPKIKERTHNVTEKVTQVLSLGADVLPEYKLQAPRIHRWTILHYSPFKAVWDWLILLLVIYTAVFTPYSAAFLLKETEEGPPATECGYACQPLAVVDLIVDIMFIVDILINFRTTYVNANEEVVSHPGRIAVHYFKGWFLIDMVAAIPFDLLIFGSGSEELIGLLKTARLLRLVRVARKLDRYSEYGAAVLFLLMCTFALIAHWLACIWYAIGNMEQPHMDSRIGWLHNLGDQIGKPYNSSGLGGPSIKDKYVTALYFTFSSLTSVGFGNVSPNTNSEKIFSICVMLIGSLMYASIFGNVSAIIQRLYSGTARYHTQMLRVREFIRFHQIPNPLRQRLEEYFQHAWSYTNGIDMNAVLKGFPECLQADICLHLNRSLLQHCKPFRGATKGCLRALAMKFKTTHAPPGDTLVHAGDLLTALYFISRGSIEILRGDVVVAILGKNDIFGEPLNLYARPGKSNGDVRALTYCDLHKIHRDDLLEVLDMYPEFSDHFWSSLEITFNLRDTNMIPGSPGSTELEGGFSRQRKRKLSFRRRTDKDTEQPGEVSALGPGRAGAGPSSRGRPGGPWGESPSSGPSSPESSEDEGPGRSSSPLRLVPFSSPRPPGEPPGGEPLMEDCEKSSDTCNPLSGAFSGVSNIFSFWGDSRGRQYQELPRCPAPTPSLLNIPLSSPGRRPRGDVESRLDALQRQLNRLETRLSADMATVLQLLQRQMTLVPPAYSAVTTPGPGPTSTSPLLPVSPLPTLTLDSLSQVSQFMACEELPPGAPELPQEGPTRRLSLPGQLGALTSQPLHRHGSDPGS
- assay: hERG protection against dofetilide inhibition, confirmation, cell-based, thallium flux, duplicate retest, dofetilide IC70 (AID 1835)
- experimental_context: hERG cell line, FluxOR thallium flux, dofetilide-blocked; at 10 µM
Hit rate of the full screen: of about 2,400 compounds, about 750 (31%) were called active.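 The calls were made as follows: active = median signal gain over dofetilide-blocked control wells reaching their mean plus 3 SD, so readout 1 at least 0; inactive = the rest.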 This is one part of the list.
Reply using exactly one outcome from active, inactive

Write down the call the test reported for this compound. Item: Cc1ccc(NC(=O)c2ccc(CNS(=O)(=O)c3cccc(C(F)(F)F)c3)cc2)cc1 inactive

Write down the call the test reported for this compound. Item: COc1ccc(NC(=O)c2onc(C)c2Cl)cc1 inactive

Write down the call the test reported for this compound. Item: CC(C)(C)c1ccc(/C=N/NC(=S)Nc2cccnc2)cc1 inactive

Write down the call the test reported for this compound. Item: O=C(O)Cn1cc(CN2CCOCC2)c2ccccc21 inactive

Write down the call the test reported for this compound. Item: CCOC(=O)C1=NN(C(=O)c2cccc(Br)c2)C(O)(C(C)(C)C)C1 (stereo unspecified) active

Write down the call the test reported for this compound. Item: COc1ccc(C(=O)NN/C(C)=C/C(=O)c2ccccc2)cc1 inactive

Write down the call the test reported for this compound. Item: O=C(Nc1ccc(Cl)cc1Cl)c1n[nH]c(Cn2cncn2)n1 inactive

Write down the call the test reported for this compound. Item: O=C1NCC(=O)N2C(c3ccccc3)c3[nH]c4ccccc4c3C[C@@H]12 (stereo partly specified) inactive

Write down the call the test reported for this compound. Item: COC(=O)C1=NN(C(=O)c2ccc(Cl)cc2)C(O)(c2ccccc2)C1 (stereo unspecified) active

Write down the call the test reported for this compound. Item: CN(C)NC(=O)C(NC(=O)c1ccc(N)cc1)C12CC3CC(CC(C3)C1)C2 (stereo unspecified) inactive

Write down the call the test reported for this compound. Item: COc1ccc(-n2c(SCc3ccccn3)nc3c(c2=O)SCC3)cc1OC active

Write down the call the test reported for this compound. Item: S=C(N/N=C/c1ccccc1Cl)Nc1cccc(Cl)c1Cl active

Write down the call the test reported for this compound. Item: CC1CCC(N2CCN(C(=O)c3ccccc3F)CC2)CC1 (stereo unspecified) inactive

Write down the call the test reported for this compound. Item: Cc1ccc(-n2ccc(=O)c(C(=O)Nc3ccc(S(=O)(=O)Nc4nccs4)cc3)n2)cc1 inactive

Write down the call the test reported for this compound. Item: O=C1CC(c2ccccc2)c2cccc(F)c21 (stereo unspecified) inactive

Write down the call the test reported for this compound. Item: CNC(=S)Nc1sc2c(c1C(=O)OC)CCC2 active

Write down the call the test reported for this compound. Item: Cc1snnc1C(=O)NC(=S)Nc1ccccc1 active

Write down the call the test reported for this compound. Item: CC1=CN2C(=N)/C(=C/c3ccc(Sc4ccc(Cl)cc4)o3)C(=O)N=C2S1 inactive

Write down the call the test reported for this compound. Item: COc1ccc(NC(=S)NC(NC(=O)c2cccc3ccccc23)C(Cl)(Cl)Cl)c([N+](=O)[O-])c1 (stereo unspecified) inactive

Write down the call the test reported for this compound. Item: O=c1c2ccccc2[nH]c(=S)n1C1CCCCC1 active

Write down the call the test reported for this compound. Item: COc1ccc(-c2nn(-c3ccccc3)cc2C(=O)Nc2cccc(C(=O)O)c2)cc1[N+](=O)[O-] inactive

Write down the call the test reported for this compound. Item: CC1CCC(n2c(=S)[nH]c3ccccc3c2=O)CC1 (stereo unspecified) active

Write down the call the test reported for this compound. Item: O=C(OCc1ccc(F)cc1)c1cc(S(=O)(=O)N2CCCCC2)ccc1N1CCOCC1 inactive

Write down the call the test reported for this compound. Item: COC(=O)C1=NN(C(=O)c2cccc(Br)c2)C(O)(c2ccc(Cl)cc2)C1 (stereo unspecified) active

Write down the call the test reported for this compound. Item: C=CCn1c2ccccc2c(=O)c2cc(C#Cc3ccsc3)ccc21 active

Write down the call the test reported for this compound. Item: CSC(=S)N/N=C(\C)c1ccccc1 active

Write down the call the test reported for this compound. Item: CN(CC(=O)Nc1ccc(Cl)cc1)C(=O)c1cccc(S(=O)(=O)NCc2ccccc2)c1 inactive

Write down the call the test reported for this compound. Item: CC1=NN(c2ccccc2)C(=O)C1C(=O)c1ccc(Cl)cc1 (stereo unspecified) inactive

Write down the call the test reported for this compound. Item: COC(=O)C1=NN(C(=O)c2ccc(C)cc2)C(O)(c2ccc(Cl)cc2)C1 (stereo unspecified) active

Write down the call the test reported for this compound. Item: CC1CCCCC1n1c(=S)[nH]c2ccccc2c1=O (stereo unspecified) active

Write down the call the test reported for this compound. Item: COC(=O)c1c(NC(=S)Nc2ccc(F)cc2[N+](=O)[O-])sc2c1CCCCC2 active

Write down the call the test reported for this compound. Item: N=c1sccn1CC(=O)Nc1ccccc1Cc1ccccc1 inactive

Write down the call the test reported for this compound. Item: CC1=NN(C(=O)c2ccc(Cl)cc2)C(O)(c2ccccc2)C1 (stereo unspecified) inactive

Write down the call the test reported for this compound. Item: C/C(=C\C(=O)c1ccccc1)NNC(=O)c1ccc(Cl)cc1 active

Write down the call the test reported for this compound. Item: O=C(NC(=S)N1CCCc2ccccc21)c1ccc(Br)cc1 active

Write down the call the test reported for this compound. Item: CC1=NN(C(=O)c2ccccc2Br)C(O)(c2ccc(Cl)cc2)C1 (stereo unspecified) inactive

Write down the call the test reported for this compound. Item: COCCNC(=O)C(=O)N/N=C/c1ccc(C(=O)OC)cc1 inactive

Write down the call the test reported for this compound. Item: CSC(=S)N/N=C/c1ccccc1 active

Write down the call the test reported for this compound. Item: CC(C)COc1ccc(-c2nn(-c3ccccc3)cc2C(=O)Nc2nccs2)cc1 active

Write down the call the test reported for this compound. Item: Cc1ccc(NC(=S)NC(=O)c2ccc(-c3ccccc3)cc2)cc1 inactive

Write down the call the test reported for this compound. Item: CC(=O)c1ccc(S(=O)(=O)NCc2ccc(C(=O)N(C)CC(=O)Nc3cccc(F)c3)cc2)cc1 active

Write down the call the test reported for this compound. Item: COC(=O)c1ccc(Oc2ccc(S(=O)(=O)N3CCCCC3)cc2N)cc1 inactive

Write down the call the test reported for this compound. Item: CCOC(=O)c1c(NC(=S)NC)sc2c1CCCC2 active

Write down the call the test reported for this compound. Item: CCCNS(=O)(=O)c1ccc(OCC(=O)Nc2ccc3c(c2)OCCO3)cc1 inactive

Write down the call the test reported for this compound. Item: Fc1ccccc1NC(=S)N/N=C/c1ccccc1Br inactive

Write down the call the test reported for this compound. Item: Cc1cnc(C(=O)Nc2nccs2)cn1 inactive
